Below: a set of entries, each annotated with reported TGI.
test system: SN12C renal; test: NCI tumour cell line growth inhibition, 48 h
readoutLabel: TGI (µM)

> print(dat)
                                    compound  units  relationqualifier  endpointvalue
 1  CC1(C)CC(/C=C2/OC(=O)c3ccccc32)=C(C(N)=O)C(=O)O1     µM                  >            100
 2  O=C1CC2(CCC(O)(c3ccco3)C(C(=O)c3ccco3)C2)C(=O)c2ccccc2N1 (configuration not stated)     µM                  >            100
 3  CS(=O)(=O)c1ccc(NNc2cc(=O)[nH]c(=O)[nH]2)cc1     µM                  >            100
 4  Cc1c(Cl)ccc2c1NC(=O)C2(O)CC(=O)c1cccc2ccccc12 (configuration not stated)     µM                  >            100
 5  CN(C)CCn1c(=O)nc2c3c(c([N+](=O)[O-])ccc31)Nc1ccc(O)cc1-2     µM                  =           17.1
 6  COC(=O)C1(C(=O)OC)N=C(C)OC1c1ccoc1 (configuration not stated)     µM                  >            100
 7                   O=c1c2[nH]ccc2nc2n1CCS2     µM                  >            100
 8  O=C(c1cccs1)c1c(C(F)(F)F)n([O-])c2ccc(Cl)cc2[n+]1=O     µM                  =          0.572
 9  O=c1oc2ccccc2c(O)c1/C=N\c1nc(-c2ccc(O)c(O)c2)cs1     µM                  =           15.6
10  COc1cccc(C=O)c1[O-].COc1cccc(C=O)c1[O-].[Cu+2]     µM                  =             34
11  C1CCC(C(CC2CCCCN2)C2CCCCC2)CC1 (configuration not stated)     µM                  =           2.97
12  Nc1nc2c(ncn2C2C=CC(COS(N)(=O)=O)C2)c(=O)[nH]1 (configuration not stated)     µM                  >            100
